Tested on: SF-539 CNS
Assay: NCI-60 one-dose screen, 48 h (100 = growth as untreated, 0 = no growth, -100 = all killed)
Conditions: 10 µM
About 83,000 compounds went through this panel and 20% of them were active in at least one assay; those are over-represented in the sample as a whole.
test-readout: growth (%)
Expressed in %, but write only the number.

Cc1cc(=O)n2nnc3cc(C(F)(F)F)ccc3n12
106
CC(=O)Nc1cc2c(cc1Cl)Cc1cc(Cl)ccc1-2
88.1
COC(=O)C1OC1c1cc([N+](=O)[O-])ccc1OC (stereo not given)
98.4
Cc1ccccc1N1C(=O)c2cc(S(N)(=O)=O)c(Cl)cc2NC1C (stereo not given)
111
CC(C)(C)OC(=O)N1CCc2c(sc3ncnc(N/N=C/c4ccccc4Br)c23)C1
80.6

growth recorded for this molecule, Cc1cc(CC(C)CC(C)(C)C)n(O)c(=O)c1 (stereo not given) (tested in a mixture with another compound) , is 6.73

growth recorded for this molecule, COc1ccc(-c2nn(-c3cccc(Cl)c3)cc2-c2nc(N)[nH]c(=O)c2C#N)cc1 , is 75.6

growth recorded for this molecule, O=C(COc1cccc(/C=C2\CSc3ccccc3C2=O)c1)c1ccc(Cl)cc1 , is 50.6

growth recorded for this molecule, CCOC(=O)CC(S(=O)(=O)c1ccccc1)S(=O)(=O)c1ccccc1 , is 104

growth recorded for this molecule, O=C(O)Cc1ccc(O)c(O)c1 , is 89.9

====

Tested on: PC-3 prostate
Test: NCI-60 one-dose screen, 48 h (100 = growth as untreated, 0 = no growth, -100 = all killed)
Details: 10 µM
This is part of a sample that, as a whole, favours compounds with a hit. Of some 83,000 tested, about 20% had one in any assay. Active and inactive are the calls of the source. Rule for the calls: active = growth percent below 10; inactive = the rest.
test-readout: growth

Please review the following examples before continuing.
CCOC(=O)C(C)(c1ccccc1)c1ccccc1
97.8% (inactive)
CCc1ccc(-c2ccc(-n3nc(C)c4c(N)nc(Cc5ccccc5)nc43)cc2)cc1
54.7% (inactive)
Nc1cc(Br)c(-c2nn3c(CCC(=O)c4nc5ccccc5[nH]4)nnc3s2)c(Br)c1
87.1% (inactive)

growth recorded for this compound, COc1ccc2nc3cc(Cl)ccc3c(Nc3cc(CN4CCCC4)c(O)c(CN4CCCC4)c3)c2n1 , is 6.93% (active)

growth recorded for this compound, Clc1ccc(/C=C2\CCCC3C2=Nc2ccccc2NC3c2ccc(Cl)cc2)cc1 (stereo not given) , is 77.3% (inactive)

growth recorded for this compound, O=C(/C=C/c1cccc(B(O)O)c1)c1cccc(B(O)O)c1 , is 26.1% (inactive)

growth recorded for this compound, Cc1ccc(NCCNCC(C)(C)O)c2c(=O)c3ccc(Cl)cc3sc12 , is 36.8% (inactive)

growth recorded for this compound, Cc1cc(Cl)ccc1Nc1nc(C(F)(F)F)ccc1C(=O)N/N=C/c1cccc(O)c1 , is 29.7% (inactive)

growth recorded for this compound, COc1cc2c(Nc3ccc(S(N)(=O)=O)cc3)ncnc2c(OC)c1OC , is 84.7% (inactive)

growth recorded for this compound, CNC(=O)c1c(I)c(NC(C)=O)c(I)c(C(=O)O)c1I , is 93% (inactive)

====

Here the recorded growth is given for each entry.
Test system: SR leukemia
Assay: NCI-60 one-dose screen, 48 h (100 = growth as untreated, 0 = no growth, -100 = all killed)
Details: 10 µM
The panel holds about 83,000 compounds, 20% with a hit somewhere; the sample as a whole holds those more often.
Expressed in %, but write only the number.

Please review the following examples before continuing.
O=[N+]([O-])c1ccc2ncccc2c1Cl
7.28
CS(=O)(=O)c1nccc(-c2c(-c3cccc(OCCc4ccccc4)c3)nc3sccn23)n1
85.8
O=C(Nc1ccc(F)cc1)c1cc2ccccc2cc1O
43.2

growth of N#Cc1c(N)nc(-c2cc(F)cc(C(F)(F)F)c2)nc1-c1ccccc1F , assay on SR leukemia, is 23.6

growth of S=c1cnc2ccccc2[nH]1 , assay on SR leukemia, is 103

growth of CCOC(=O)c1sc2ncnc(Nc3ccc4c(cnn4C(=O)Nc4ccccc4)c3)c2c1C , assay on SR leukemia, is 27.9

growth of CC(C)(C)OC(=O)CN1CCc2c(sc3ncnc(N/N=C/c4ccccc4Br)c23)C1 , assay on SR leukemia, is 37.6

growth of O=C(CN1CCN(C(=O)c2ccccc2)CC1)Nc1ccccc1SCc1ccccc1 , assay on SR leukemia, is 71

growth of Cc1ccc(-n2c(C)nn3c(=O)c4c5c(sc4nc23)CN(C)CC5)cc1 , assay on SR leukemia, is 104

growth of O=C(CCCSc1nc(-c2ccc(Cl)cc2)cc(-c2ccc(Cl)cc2)n1)NO , assay on SR leukemia, is 7.59

growth of OCC1OC(n2cnc3c(NCc4ccco4)ncnc32)C(O)C1O (stereo unspecified) , assay on SR leukemia, is 5.19

====

System: HCT-15 colon
Assay: NCI-60 one-dose screen, 48 h
Conditions: 10 µM
Compounds without any hit were thinned out: in the full panel of roughly 83,000, 20% have a hit. The source made the active and inactive calls. Rule for the calls: active = growth percent below 10; inactive = the rest.
Respond with a class label; see True = active, False = inactive

CCN(CC)CCNc1ccc(C)c2sc3cc(Cl)ccc3c(=O)c12
False

Could you kindly confirm the outcome this assay logged for CC(=O)Nc1ccc(CC[C@H]2CCC/C=C/[C@@H]3C[C@H](O)C[C@H]3[C@H](O)/C=C/C(=O)O2)cc1 ?
True

Could you kindly confirm the outcome this assay logged for Cc1cc(C(C#N)c2ccc(Cl)cc2)c(Cl)cc1NC(=O)c1cc(I)cc(I)c1O (stereo not given) ?
False

Could you kindly confirm the outcome this assay logged for Cc1ccc(NC(=S)NNC(=S)Nc2ccc(C)cc2)cc1 ?
False

Could you kindly confirm the outcome this assay logged for Cc1cc(C)nc(NS(=O)(=O)c2ccc(Nc3nc4nc(NCc5ccccc5)nc(-c5ccc(O)cc5)c4c(=O)[nH]3)cc2)n1 ?
False

Could you kindly confirm the outcome this assay logged for Clc1nc2ccccc2cc1Cn1nnc(Cc2ccccc2)n1 ?
False

Could you kindly confirm the outcome this assay logged for COc1ccc(/C=C2\CCCC3=C2N=C2SC(C)=CN2C3c2ccc(OC)cc2)cc1 (stereo not given) ?
False

Could you kindly confirm the outcome this assay logged for O=C1c2c(c(=O)[nH]c3ccccc23)CCN1Cc1ccccc1 ?
False

Could you kindly confirm the outcome this assay logged for COc1cc(C2CC(c3cc(Cl)c(C)cc3O)=NN2c2ccc(S(N)(=O)=O)cc2)cc(OC)c1OC (stereo not given) ?
False

Could you kindly confirm the outcome this assay logged for COc1cc2c3c(n(C4CCN(C)CC4)c(=O)c2cc1OC)-c1cc2c(cc1C3=O)OCO2 ?
False

====

Here the recorded growth is given for each entry.
Tested on: SNB-75 CNS
Test: NCI-60 one-dose screen, 48 h (100 = growth as untreated, 0 = no growth, -100 = all killed)
Settings: 10 µM
Protocol: Growth inhibition of the SNB-75 human tumor cell line is measured as a screen for anti-cancer activity. Cells are grown in 96 well plates and exposed to the test compound for 48 hours. Compounds are tested at a single concentration, which is 10^-5 M for most compounds. The reported endpoint is percent growth (GI% or GIPRCNT), where numbers from 0 - 100% represent growth inhibition, and numbers from -100% - 0 represent cell death. For example, a value of 40 represents 60% growth inhibition. […]
This is part of a sample that, as a whole, favours compounds with a hit. Of some 83,000 tested, about 20% had one in any assay.
Expressed in %, but write only the number.

Please review the following examples before continuing.
CC(C)(C)c1ccc(S(=O)(=O)Oc2ccc(NC(=O)C3CCCCC3)cc2)cc1
80.1
Nc1c(Br)cc(Br)c2c1[nH]c(=O)c1ccccc12
-33.9
CCn1c(SCc2ccc(C)cc2)nnc1-c1nn(-c2ccc(Cl)cc2Cl)c(-c2ccc(Cl)cc2)c1C
23.3
Nc1cc(-c2ccc(Cl)cc2)nn1-c1nc2ccccc2nc1Cc1ccccc1
84.4
CN(C)c1ccc(/C=N/NC(=O)c2cccc3ccccc23)c(Cl)c1
20.3

growth of Cc1ccc(N=Nc2ccccc2)cc1 , assay on SNB-75 CNS, is 105

growth of COc1cc2cc(Oc3ccc(NC(=O)Nc4ccc(C(F)(F)F)cc4)cc3)c(C)nc2cc1OC , assay on SNB-75 CNS, is 41

growth of Oc1cccc(-c2nc3sccn3c2-c2ccncn2)c1 , assay on SNB-75 CNS, is 39.4

growth of C=CCNCCN1C(=O)c2ccc3c4c(ccc(c24)C1=O)C(=O)N(CCNCC=C)C3=O , assay on SNB-75 CNS, is -37.9

growth of Cc1c[nH]c(=O)n(Cc2nnc(CCC(=O)c3nc4ccccc4[nH]3)o2)c1=O , assay on SNB-75 CNS, is -33

====

Test system: SN12C renal
Experiment: NCI-60 one-dose screen, 48 h (100 = growth as untreated, 0 = no growth, -100 = all killed)
Conditions: 10 µM
This is part of a sample that, as a whole, favours compounds with a hit. Of some 83,000 tested, about 20% had one in any assay.
test-readout: growth (%)
Expressed in %, but write only the number.

CC(=O)Nc1ccc(CC[C@H]2CCC/C=C/[C@@H]3C[C@H](O)C[C@H]3[C@H](O)/C=C/C(=O)O2)cc1
5.85
CCNc1nc(C(F)(F)F)nc2c1sc(=S)n2-c1ccccc1
100
Nc1nc(Cn2c(-c3nonc3N)nc3ccccc32)nc(N2CCCCC2)n1
98.2

growth recorded for this compound, CCOC(=O)c1cc(C(=O)c2cc(OC)c(OC)c(OC)c2)n2nc(C)ccc12 , is 60.1

growth recorded for this compound, CN(C)CCCOc1cccc(NC2=C(Cl)C(=O)C(Nc3cccc(OCCCN(C)C)c3)=C(Cl)C2=O)c1 , is -69.2
